System: VEEV
run description: microbe, parasite or virus in culture
Type: cell-based
protocol conditions: Venezuelan equine encephalitis virus, NHDF, read-out: VEEV EC90
Range-based classes on measured EC90: band A: < 1000 nM; band B: ≥ 1000 nM and < 2000 nM; band C: ≥ 2000 nM

CC(C)Cc1cc(OCC(=O)NC23CC4CC(CC(C4)C2)C3)nc(=O)[nH]1: band B

Inquiry: Which category does the recorded EC90 put O=C(COc1nc(=O)[nH]cc1F)NC1C2CC3CC(C2)CC1C3 (centres unmarked) in?
Reply text: band C

Inquiry: Which category does the recorded EC90 put Cc1c[nH]c(=O)nc1OCC(=O)NC12CC3CC(CC(C3)C1)C2 in?
Reply text: band C

Inquiry: Which category does the recorded EC90 put CC(C)(C#N)COc1cc(OCC(=O)NC23CC4CC(CC(C4)C2)C3)nc(=O)[nH]1 in?
Reply text: band C

Inquiry: Which category does the recorded EC90 put O=C(COc1cc(C2CC2)[nH]c(=O)n1)NC12CC3CC(CC(C3)C1)C2 in?
Reply text: band B

Inquiry: Which category does the recorded EC90 put O=C(COc1cc(N2CC(F)(F)C2)[nH]c(=O)n1)NC12CC3CC(CC(C3)C1)C2 in?
Reply text: band A

Inquiry: Which category does the recorded EC90 put O=C(COc1nc(=O)[nH]c2c1COCC2)NC12CC3CC(CC(C3)C1)C2 in?
Reply text: band C

Inquiry: Which category does the recorded EC90 put O=C(COc1cc(N2CCOCC2)[nH]c(=O)n1)NC12CC3CC(CC(C3)C1)C2 in?
Reply text: band C

Data origin: patent US11932626B2
